Where these numbers come from: PubChem BioAssay (NCI)

ASSAY_OVERVIEW: NCI Yeast Anticancer Drug Screen. Data for the rad50 strain (AID 155);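 note: 0% = growth of vehicle-only cultures of the same strain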
ASSAY_CONTEXT: S. cerevisiae rad50 strain growth inhibition; at 50.0 µM; active compounds read high
The panel holds about 79,000 compounds, 15% with a hit somewhere; the sample as a whole holds those more often.
MEASURED_METRIC: growth inhibition (%)
Give a bare numeral; the unit % is implied.

### Prompt Supply recorded growth inhibition for CC(=O)OC1C(COC(=O)c2ccccc2)OC(Nc2ncc(-c3ccc(Br)cc3)s2)C(OC(=O)c2ccccc2)C1OC(=O)c1ccccc1 (stereo unspecified) here.
### Response 1.05

### Prompt Please give the documented growth inhibition of `CCN(CC)CCNc1ccc2ncn3c4c(OC)ccc(OC)c4c(=O)c1c23`
### Response -21.1

### Prompt Please list growth inhibition recorded for the compound `O=C1C=C(n2ccccc2=O)CCC1`
### Response 8.05

### Prompt Please indicate growth inhibition recorded for CCCCC1(CN(C)C)C(=O)N(C)C(=O)N(C2CCCCC2)C1=O (stereo unspecified)
### Response 9.15

### Prompt Please indicate growth inhibition recorded for `Cc1cc(C)c(C)c(CC(C)(COS(C)(=O)=O)COS(C)(=O)=O)c1C`
### Response 8.6

### Prompt Report growth inhibition for `Cc1cc2c(=O)c3ccccc3oc2c(C(=O)O)c1C`
### Response -6.75

### Prompt For `COc1cc2c(cc1OC)C(=O)Cc1ccc3c(c1CN(C)CC2)OCO3` , write its growth inhibition.
### Response -19.9

### Prompt Consider the compound COC(=O)C(C(=O)C(=O)Nc1ccc(Br)cc1)c1nc2ccc(Cl)cc2[nH]c1=O (stereo unspecified) . State its measured growth inhibition.
### Response -11

### Prompt Input `COC(=O)c1ccccc1S(=O)(=O)NC(C)C` , output reported growth inhibition.
### Response 10.8

### Prompt Specify growth inhibition for `CCOC(=O)N1C(=O)c2ccccc2C1=O` and stop.
### Response -7.35

### Prompt Indicate its recorded growth inhibition; the compound in question is CCS(=O)CCCN1CCc2ccccc2C1 (stereo unspecified)
### Response 25.5

---

ASSAY_OVERVIEW: NCI Yeast Anticancer Drug Screen. Data for the cln2 rad14 strain (AID 165);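 note: 0% = growth equal to vehicle treated cultures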
ASSAY_CONTEXT: S. cerevisiae cln2 rad14 strain, at 50.0 µM, active compounds read high
About 79,000 compounds went through this panel and 15% of them were active in at least one assay; those are over-represented in the sample as a whole.
Please go through the items and note down their growth inhibition.
Give the value, in units of %, as a plain number.

### Prompt // fetch growth inhibition given entry `O=[N+]([O-])c1ccc2cccc3c2c1CC3`
### Response -19.4

### Prompt Output measured growth inhibition for this item: COc1nc(NC2OCC(O)C(O)C2O)c(NC2OCC(O)C(O)C2O)c(=O)n1C (stereo not given)
### Response 22.5

### Prompt Please give measured growth inhibition of the following entry: `O=C(O)COc1ccc2ccccc2c1`
### Response -14.8

### Prompt Query growth inhibition for O=C(O)CCC1CCCO1 (stereo not given)
### Response 10.2

### Prompt Specify reported growth inhibition for the compound shown: CCCCCOCC(O)CNCCNCC(O)COCCCCC (stereo not given)
### Response -55.6

### Prompt Could you please provide reported growth inhibition for `CCC1(CC)OC(=O)C(=O)N1N(C)C` ? Thanks!
### Response -15.2

### Prompt Retrieve growth inhibition measured for [Mn+2].[NH-]CC(=O)NC(Cc1ccccc1)C(=O)O.[NH-]CC(=O)NC(Cc1ccccc1)C(=O)O (stereo not given) and print it.
### Response -34.2

### Prompt # return recorded growth inhibition for entry `O=C1CCCCCN1`
### Response -11.3

### Prompt Read the entry COC1C(=O)CCC2(CO2)C1(O)C1(C)OC1CC=C(C)C (stereo not given) and write its reported growth inhibition.
### Response -5.2

### Prompt Determine from records and report growth inhibition for `Cc1cccc(C(=O)NN)c1`
### Response -5.4

### Prompt Supply growth inhibition value. Item: C=C1C(=O)OC2CCCC(O)C12 (stereo not given)
### Response -39

### Prompt Supply reported growth inhibition belonging to this compound: CC(=O)OC/C(=C/C#N)C1CCC2C3CCC4CC(OC(C)=O)CCC4(C)C3CCC12C (stereo not given)
### Response 40

### Prompt Name the recorded growth inhibition of the item `C[C@H](CCC(c1ccccc1)c1ccccc1)[C@H]1CC[C@H]2[C@@H]3CC[C@@H]4C[C@H](O)CC[C@]4(C)C3=CC[C@]12C` in your answer.
### Response 24.8

### Prompt Return the recorded growth inhibition value; entry: COc1ccc(C2OCC3(O)C(c4ccc(OC)c(OC)c4)OCC23)cc1OC (stereo not given)
### Response 19.4

### Prompt Assign growth inhibition to the following record: `CC/C(=C\c1ccccc1O)c1ccncc1`
### Response 1.85

### Prompt Give a short answer stating reported growth inhibition for `CC(=O)N(C)Cc1c(O)ccc2ccccc12` .
### Response -9.4

### Prompt Answer with reported growth inhibition of C[C@@H]1CC[C@]2(C)C3(C)CC[C@]2(OC3=O)[C@@]12CC(c1ccoc1)OC2=O (stereo not given in full)
### Response -7.45

### Prompt State its growth inhibition for this compound: COc1ccc(C(=O)C(C)(c2nc3n(c2O)C(=N)N=N3)c2nc3n(c2O)C(=N)N=N3)cc1 (stereo not given)
### Response -8.85

### Prompt Given the compound `CC(=O)NC(c1ccc(Cl)cc1)(c1ccc(Cl)cc1)C(Cl)(Cl)Cl` , write its reported growth inhibition.
### Response 8.5

### Prompt Indicate its recorded growth inhibition; the compound in question is CC(SC(=S)SC(C)C(=O)O)C(=O)O (stereo not given)
### Response 44

### Prompt Provide one value: measured growth inhibition of COc1cc(NC(C)CNC(C)C)c2ncccc2c1 (stereo not given)
### Response -34

### Prompt Consider the compound `O=C1CCCC(=O)C1=Cc1c[nH]c2ccccc12` and give its recorded growth inhibition.
### Response -43

### Prompt Return reported growth inhibition. Input compound: `OCc1ccc(Cl)cc1Cl`
### Response 10.3

### Prompt State its growth inhibition for this compound: `COc1cc(NCCCCCNC(C)C)c2ncccc2c1OC`
### Response -11.3

### Prompt Please list growth inhibition recorded for the compound COC1CCC(O)C(C=Nc2ccccc2)C1 (stereo not given)
### Response 4.35
